Readings of IC50 for the listed molecules
target: NO synthase (Rattus norvegicus, UniProt P29476)
Structures can show the parent of a compound that is named as a salt.
Give the quantity in µM, number only.

As a guide, the following entries are already answered.
# molecule, IC50 [µM]
measured = [
    ("Cc1cc(C)n2c(NC(C)(C)C)c(-c3ccco3)nc2c1 [Example 18, hydrochloride]", 2.8),
    ("Cc1cc(C)n2c(NC(C)(C)C)c(C)nc2c1 [Example 20, hydrochloride]", 9.2),
]

Attention now turns to another entry.
query: Any idea what IC50 came out for Cc1ccn2c(NC(C)(C)C)c(-c3ccccc3)nc2c1 [Example 19, hydrochloride] on NO synthase (Rattus norvegicus, UniProt P29476)?
result: 2.4

From: patent US6703404B2
